Please go through the items and note down their protein stability index.
B1: FBXO34 (parent)
chain: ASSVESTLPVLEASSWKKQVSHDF

# Variants of: B1
# measurementDescription: protein stability index of a GFP-peptide fusion (GPS, HEK-293T) (PSI 1-6); higher = more stable;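 further: lentivirally expressed fusions sorted by FACS into six bins by GFP to DsRed ratio, PSI derived from sequencing read proportions per bin multiplied by bin number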
# conditionDescription: c terminus: a fixed tail appended
Just the number, please.

**Q:** protein stability index for `Q19S` ?
**A:** 4.08

**Q:** protein stability index for `K17M` ?
**A:** 2.58

**Q:** protein stability index for `E5G` ?
**A:** 2.61

**Q:** protein stability index for `A13M` ?
**A:** 2.85

**Q:** protein stability index for `V10P` ?
**A:** 3.19

**Q:** protein stability index for `H22C` ?
**A:** 2.94

**Q:** protein stability index for `L8G` ?
**A:** 3.59

**Q:** protein stability index for `K17N` ?
**A:** 3.75

**Q:** protein stability index for `P9N` ?
**A:** 2.51

**Q:** protein stability index for `D23K` ?
**A:** 3.54

**Q:** protein stability index for `T7V` ?
**A:** 2.85

**Q:** protein stability index for `V4A` ?
**A:** 3.39

**Q:** protein stability index for `Q19R` ?
**A:** 1.95

**Q:** protein stability index for `L11K` ?
**A:** 2.19

**Q:** protein stability index for `S3I` ?
**A:** 2.69

**Q:** protein stability index for `A13H` ?
**A:** 2.37

**Q:** protein stability index for `V20G` ?
**A:** 4.09

**Q:** protein stability index for `D23Q` ?
**A:** 2.93

**Q:** protein stability index for `E12L` ?
**A:** 2.24

**Q:** protein stability index for `S6I` ?
**A:** 1.7

**Q:** protein stability index for `P9G` ?
**A:** 1.89

**Q:** protein stability index for `V20W` ?
**A:** 2.47

**Q:** protein stability index for `Q19C` ?
**A:** 2.92

**Q:** protein stability index for `F24G` ?
**A:** 2.98

**Q:** protein stability index for `S14T` ?
**A:** 2.33

**Q:** protein stability index for `K18P` ?
**A:** 2.99

**Q:** protein stability index for `E12C` ?
**A:** 2.54

**Q:** protein stability index for `Q19G` ?
**A:** 4.14

**Q:** protein stability index for `H22F` ?
**A:** 2.73

**Q:** protein stability index for `K18G` ?
**A:** 3.49

**Q:** protein stability index for `A13L` ?
**A:** 2.61

**Q:** protein stability index for `V20E` ?
**A:** 4.85

**Q:** protein stability index for `D23I` ?
**A:** 2.07

**Q:** protein stability index for `S15Y` ?
**A:** 2.99

**Q:** protein stability index for `Q19D` ?
**A:** 4.28

**Q:** protein stability index for `K17F` ?
**A:** 2.85

**Q:** protein stability index for `P9Y` ?
**A:** 1.8

**Q:** protein stability index for `S3P` ?
**A:** 3.31

**Q:** protein stability index for `L8Q` ?
**A:** 2.04

**Q:** protein stability index for `K17C` ?
**A:** 3.17

**Q:** protein stability index for `S3W` ?
**A:** 2.02

**Q:** protein stability index for `S15P` ?
**A:** 3.61

**Q:** protein stability index for `S21Y` ?
**A:** 2.97

**Q:** protein stability index for `K18D` ?
**A:** 1.88

**Q:** protein stability index for `V20C` ?
**A:** 3.44

**Q:** protein stability index for `V20M` ?
**A:** 4.34
